assay: qHTS assay to identify small molecule agonists of the retinoic acid receptor (RAR) signaling pathway (AID 1159553)
recorded_conditions: C3RL4 RARE luciferase reporter, agonist, 6 h; series mostly up to 73.3 µM
Inconclusive results are not listed. Active and inactive are the calls of the source. Calls come from the whole dose curve; as a rule, active = well fitted activation curve with a large enough effect in the repeat runs; inconclusive = weak or mixed curves, or effect the other way; inactive = no such curve, though single readings can be large or run the other way.
A correct response names exactly one class from TRUE = active, FALSE = inactive

{"columns": ["compound", "class_label"],
 "data": [
  ["Cc1ccc(S(=O)(=O)NC(=O)NN2CC3CCCC3C2)cc1 (stereo unspecified)", "FALSE"],
  ["CCO[Si](CC(C)C)(OCC)OCC", "FALSE"],
  ["CNCCc1ccccn1", "FALSE"],
  ["COc1cc(OC)cc(OC)c1", "FALSE"],
  ["C[C@@H]1CCC[C@H](C)N1CCCC(O)(c1ccccc1)c1ccccn1 (stereo partly specified)", "FALSE"]
]}

Answer briefly: the call reported for `CCCCCCCCOCCC#N` in this assay.
FALSE

Any idea what this test logged for `CCCCCCCCCCCBr` ?
FALSE
